molecular target: ADRBK1 (human); assay: radiometric filter-binding kinase assay, Kinase HotSpot; settings: compound 0.5 µM; ATP 10 µM
Parameter: residual activity (%)
The reply should be a number in %, with the unit left off.

(Q) Recorded residual activity for Cc1nc(-c2ccccc2)c(-c2ccncc2)o1 , please?
(A) 100

(Q) Recorded residual activity for Fc1ccc(-c2nc3n(c2-c2ccncc2)CCS3)cc1 , please?
(A) 102

(Q) Recorded residual activity for Cc1cccc(-c2nc(C(C)(C)C)[nH]c2-c2ccc3c(c2)OCO3)n1 , please?
(A) 105

(Q) Recorded residual activity for CC(C)(C)c1cc(C=C(C#N)C#N)cc(Br)c1O , please?
(A) 83.7

(Q) Recorded residual activity for COc1ccc2c(c1)c(C1=C(c3c[nH]c4ccccc34)C(=O)NC1=O)cn2CCCN(C)C , please?
(A) 99

(Q) Recorded residual activity for O=C(c1cc2cc(O)ccc2[nH]1)c1cc2cc(O)ccc2[nH]1 , please?
(A) 98.2

* * *

Would you mind telling me the reported residual activity of each entry?
molecular target: PAK3 (human) (UniProt O75914); assay: radiometric filter-binding kinase assay, Kinase HotSpot; settings: compound 0.5 µM; ATP 10 µM
Sequence (O75914 whole entry, looked up): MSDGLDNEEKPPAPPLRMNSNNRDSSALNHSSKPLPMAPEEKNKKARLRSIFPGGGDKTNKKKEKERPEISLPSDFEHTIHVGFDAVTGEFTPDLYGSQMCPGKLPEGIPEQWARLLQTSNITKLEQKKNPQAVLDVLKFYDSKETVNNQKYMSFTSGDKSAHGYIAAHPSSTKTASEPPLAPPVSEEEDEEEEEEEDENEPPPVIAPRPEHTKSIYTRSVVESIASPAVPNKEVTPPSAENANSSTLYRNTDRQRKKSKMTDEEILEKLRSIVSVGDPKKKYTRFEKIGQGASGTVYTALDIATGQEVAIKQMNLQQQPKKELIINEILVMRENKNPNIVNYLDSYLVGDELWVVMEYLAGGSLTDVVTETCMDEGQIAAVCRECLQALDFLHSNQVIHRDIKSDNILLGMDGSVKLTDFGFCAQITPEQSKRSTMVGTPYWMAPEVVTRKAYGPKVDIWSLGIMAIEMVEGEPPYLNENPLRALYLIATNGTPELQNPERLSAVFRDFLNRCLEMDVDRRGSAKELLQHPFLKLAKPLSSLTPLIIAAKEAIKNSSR
The reply should be a number in %, with the unit left off.

(Q) Recorded residual activity for COc1ccc2c(c1)c(C1=C(c3c[nH]c4ccccc34)C(=O)NC1=O)cn2CCCN(C)C , please?
(A) 105

(Q) Recorded residual activity for O=C(c1cc2cc(O)ccc2[nH]1)c1cc2cc(O)ccc2[nH]1 , please?
(A) 99.2

(Q) Recorded residual activity for O=C1c2ccccc2-c2nc3nnnn3nc21 , please?
(A) 97.1

(Q) Recorded residual activity for c1ccc2c(-c3ccncc3)c[nH]c2c1 , please?
(A) 102

(Q) Recorded residual activity for O=C1NC(=O)c2c1c1c3ccccc3[nH]c1n1cncc21 , please?
(A) 100

(Q) Recorded residual activity for CCCCc1c(-c2ccc(OC)cc2)[nH]c2nccnc12 , please?
(A) 106

(Q) Recorded residual activity for CN(C)c1ccc(/C=C2\C(=O)Nc3ccccc32)cc1 , please?
(A) 99

(Q) Recorded residual activity for Cc1cncc2cccc(S(=O)(=O)N3CCCN(C(=O)CN)C[C@H]3C)c12 , please?
(A) 105

* * *

molecular target: STK24 (human) (UniProt Q9Y6E0); assay: radiometric filter-binding kinase assay, Kinase HotSpot; conditions: compound 0.5 µM; ATP 10 µM
Sequence (Q9Y6E0 whole entry, looked up): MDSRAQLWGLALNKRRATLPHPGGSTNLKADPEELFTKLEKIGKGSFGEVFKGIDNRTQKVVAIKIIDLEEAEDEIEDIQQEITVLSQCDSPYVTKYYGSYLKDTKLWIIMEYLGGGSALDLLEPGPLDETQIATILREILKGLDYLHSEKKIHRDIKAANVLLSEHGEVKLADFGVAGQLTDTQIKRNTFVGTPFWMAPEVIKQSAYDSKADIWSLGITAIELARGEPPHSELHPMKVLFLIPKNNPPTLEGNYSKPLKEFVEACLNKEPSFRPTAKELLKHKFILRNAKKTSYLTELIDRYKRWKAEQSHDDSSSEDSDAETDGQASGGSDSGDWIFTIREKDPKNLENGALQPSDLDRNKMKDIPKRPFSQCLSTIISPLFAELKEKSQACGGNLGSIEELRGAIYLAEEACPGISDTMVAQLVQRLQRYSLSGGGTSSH
Parameter: residual activity (%)
The reply should be a number in %, with the unit left off.

(Q) Recorded residual activity for C[C@@H]1CCN(C(=O)CC#N)C[C@@H]1N(C)c1ncnc2[nH]ccc12 , please?
(A) 96.1

(Q) Recorded residual activity for CN(C)S(=O)(=O)c1ccc2c(c1)/C(=C/c1cc3c([nH]1)CCCC3)C(=O)N2 , please?
(A) 47.7

(Q) Recorded residual activity for COc1cc2ncnc(Nc3ccc(OCc4ccccc4)cc3)c2cc1OC , please?
(A) 104

(Q) Recorded residual activity for Ic1cccc(CSc2nnc(-c3ccncc3)o2)c1 , please?
(A) 108

(Q) Recorded residual activity for N#C/C(=C\c1ccc(O)c(O)c1)C(=O)NCc1ccccc1 , please?
(A) 100

* * *

Would you mind telling me the reported residual activity of each entry?
molecular target: NEK3 (human); assay: radiometric filter-binding kinase assay, Kinase HotSpot; settings: compound 0.5 µM; ATP 10 µM

(Q) Recorded residual activity for CN(C)S(=O)(=O)c1ccc2c(c1)/C(=C/c1cc3c([nH]1)CCCC3)C(=O)N2 , please?
(A) 98.2%

(Q) Recorded residual activity for COc1cc2ncnc(Nc3ccc(Oc4ccccc4)cc3)c2cc1OC , please?
(A) 98.4%

(Q) Recorded residual activity for COc1ccc2c(c1)c(C1=C(c3c[nH]c4ccccc34)C(=O)NC1=O)cn2CCCN(C)C , please?
(A) 98.3%

Cited source for all entries: the kinase profiling compilation of Christmann-Franck et al. (2016)
